method.summary: Acute oral toxicity in po dosed rat after 14 days
Assay type: organism-based
measurement.setup: in vivo
assay.readout: LD50 at 336 h

# input What does the record list as LD50 at 336 h for COc1ccc(C2=NN(C(=O)c3ccc(C)nc3)C(c3ccc(Cl)cc3)C2)cc1 (stereo unspecified) ?
# output > 5000 mg/kg

====

Readings of IC50 for the listed molecules
method.summary: Inhibition of mouse full length GST-tagged BRAF V600E mutant-mediated Mek1 phosphorylation preincubated for 1 hr prior to substrate addition measured after 25 mins by PAGE analysis
The answer consists of two parts: a number and, after it, its unit.

Illustrative cases are given below, each with its answer.
In [3]: df
Out[3]:
                                   molecule  assay_readout  result_value
0  O=C(c1cccnc1Cl)N1N=C(c2ccc(Cl)cc2)CC1c1ccc(Cl)cc1 (stereo not drawn)           IC50       2.12 µM
1  O=C(c1cccnc1Cl)N1N=C(c2ccc(Cl)cc2)CC1c1ccc(OCc2ccccc2)cc1 (stereo not drawn)           IC50       4.42 µM

Please look at the following molecule next.
# input What does the record list as IC50 for O=C(c1cncc(Br)c1)N1N=C(c2ccc(Cl)cc2)CC1c1ccc(Br)cc1 (stereo not drawn) ?
# output 7.82 µM

====

method.summary: Inhibition of mouse full length GST-tagged BRAF V600E mutant-mediated Mek1 phosphorylation preincubated for 1 hr prior to substrate addition measured after 25 mins by PAGE analysis
assay.readout: pIC50
// pIC50 is dimensionless: -log10 of concentration (M)

Illustrative cases are given below, each with its answer.
>>> df
                                   compound  result_value
0  O=C(c1ccc(Cl)nc1)N1N=C(c2ccc(Cl)cc2)CC1c1ccc(OCc2ccccc2)cc1 (centres undefined)          4.78
1  COc1ccc(C2=NN(C(=O)c3cncc(Br)c3)C(c3ccc(Br)cc3)C2)cc1 (centres undefined)          5.45
2  COc1ccc(C2=NN(C(=O)c3cncc(Br)c3)C(c3ccc(OC)cc3)C2)cc1 (centres undefined)          5.34
3  O=C(c1cccnc1Cl)N1N=C(c2ccc(Cl)cc2)CC1c1ccc(Br)cc1 (centres undefined)          5.06
4  COc1ccc(C2=NN(C(=O)c3ccc(Cl)nc3)C(c3ccc(Br)cc3)C2)cc1 (centres undefined)          5.16
5  CNC(=O)c1cc(Oc2ccc(NC(=O)Nc3ccc(Cl)c(C(F)(F)F)c3)cc2)ccn1          7.22
6  COc1ccc(C2=NN(C(=O)c3cccnc3Cl)C(c3ccc(OCc4ccccc4)cc3)C2)cc1 (centres undefined)          5.19
7  O=C(c1cncc(Br)c1)N1N=C(c2ccc(Cl)cc2)CC1c1ccc(Cl)cc1 (centres undefined)          5.32

Please look at the following compound next.
# input What does the record list as pIC50 for COc1ccc(C2=NN(C(=O)c3ccc(C)nc3)C(c3ccc(OCc4ccccc4)cc3)C2)cc1 (centres undefined) ?
# output 5.79

====

method.summary: Inhibition of mouse full length GST-tagged BRAF V600E mutant-mediated Mek1 phosphorylation preincubated for 1 hr prior to substrate addition measured after 25 mins by PAGE analysis
Assign labels as follows, please: YES for IC50 below 6 µM; NO for IC50 equal to or exceeding 6 µM.

# input Take the compound Cc1ccc(C(=O)N2N=C(c3ccc(Cl)cc3)CC2c2ccc(Cl)cc2)c(Cl)n1 (centres undefined) and say whether its IC50 is less than 6 µM.
# output NO

# input Take the compound Cc1ccc(C(=O)N2N=C(c3ccc(Cl)cc3)CC2c2ccc(Br)cc2)c(Cl)n1 (centres undefined) and say whether its IC50 is less than 6 µM.
# output NO

# input Take the compound COc1ccc(C2=NN(C(=O)c3cncc(Br)c3)C(c3ccc(OCc4ccccc4)cc3)C2)cc1 (centres undefined) and say whether its IC50 is less than 6 µM.
# output YES

# input Take the compound COc1ccc(C2=NN(C(=O)c3ccc(C)nc3Cl)C(c3ccc(OCc4ccccc4)cc3)C2)cc1 (centres undefined) and say whether its IC50 is less than 6 µM.
# output YES

# input Take the compound Cc1ccc(C(=O)N2N=C(c3ccc(Cl)cc3)CC2c2ccc(OCc3ccccc3)cc2)cn1 (centres undefined) and say whether its IC50 is less than 6 µM.
# output NO

# input Take the compound COc1ccc(C2=NN(C(=O)c3ccc(C)nc3Cl)C(c3ccc(Br)cc3)C2)cc1 (centres undefined) and say whether its IC50 is less than 6 µM.
# output NO

# input Take the compound Cc1ccc(C(=O)N2N=C(c3ccc(Cl)cc3)CC2c2ccc(Cl)cc2)cn1 (centres undefined) and say whether its IC50 is less than 6 µM.
# output YES

# input Take the compound COc1ccc(C2=NN(C(=O)c3ccc(C)nc3Cl)C(c3ccc(OC)cc3)C2)cc1 (centres undefined) and say whether its IC50 is less than 6 µM.
# output YES

# input Take the compound COc1ccc(C2=NN(C(=O)c3ccc(Cl)nc3)C(c3ccc(OC)cc3)C2)cc1 (centres undefined) and say whether its IC50 is less than 6 µM.
# output NO
